# pIC50 listing for each entry below
# assay.target: human TLR7 (Homo sapiens (Human))
# Sequence (Q9NYK1 27-1049): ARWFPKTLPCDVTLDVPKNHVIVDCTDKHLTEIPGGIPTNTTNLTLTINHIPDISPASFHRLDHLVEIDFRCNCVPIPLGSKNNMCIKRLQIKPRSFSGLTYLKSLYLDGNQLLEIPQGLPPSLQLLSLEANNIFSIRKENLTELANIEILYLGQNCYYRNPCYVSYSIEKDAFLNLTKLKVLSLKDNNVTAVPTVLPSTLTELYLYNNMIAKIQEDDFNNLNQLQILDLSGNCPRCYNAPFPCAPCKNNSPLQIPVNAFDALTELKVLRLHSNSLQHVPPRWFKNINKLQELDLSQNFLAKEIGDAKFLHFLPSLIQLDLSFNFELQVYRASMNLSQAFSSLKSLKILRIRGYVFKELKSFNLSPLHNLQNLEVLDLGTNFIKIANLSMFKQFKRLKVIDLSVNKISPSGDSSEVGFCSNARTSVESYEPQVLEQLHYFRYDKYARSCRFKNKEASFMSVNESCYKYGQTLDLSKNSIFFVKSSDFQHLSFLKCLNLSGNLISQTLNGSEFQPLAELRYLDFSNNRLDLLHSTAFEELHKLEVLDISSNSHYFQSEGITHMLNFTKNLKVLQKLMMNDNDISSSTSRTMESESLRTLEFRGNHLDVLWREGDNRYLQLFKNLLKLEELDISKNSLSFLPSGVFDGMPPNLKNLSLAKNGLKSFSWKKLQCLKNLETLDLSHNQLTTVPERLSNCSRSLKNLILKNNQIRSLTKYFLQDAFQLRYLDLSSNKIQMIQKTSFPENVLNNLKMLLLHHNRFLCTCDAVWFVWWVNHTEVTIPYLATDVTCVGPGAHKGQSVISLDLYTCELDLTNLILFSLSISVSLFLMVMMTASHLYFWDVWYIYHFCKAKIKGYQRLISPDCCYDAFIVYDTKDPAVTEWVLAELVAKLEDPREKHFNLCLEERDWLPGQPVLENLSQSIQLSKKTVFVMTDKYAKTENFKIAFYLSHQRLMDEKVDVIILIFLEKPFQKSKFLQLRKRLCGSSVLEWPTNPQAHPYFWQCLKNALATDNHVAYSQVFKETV
# measurement.description: TLR7 inhibition reporter assay (HEK-Blue cells, SEAP reporter, gardiquimod stimulation)
# Format: cell-based
# condition.context: HEK-Blue cells overexpressing human TLR7, gardiquimod 7.5 μM
// scale note: pIC50 = -log10(conc_M); give the bare number

[[record]]
smiles_data = "COc1cc(-c2[nH]c3ccc(C4CCN(Cc5c[nH]c(C)n5)CC4)cc3c2C(C)C)ccn1"
assay_target = "human TLR7 (Homo sapiens (Human))"
endpoint_name = "pIC50"
reported_measurement = 7.37

[[record]]
smiles_data = "CNC(=O)CN1CCC(c2ccc3[nH]c(-c4cc(C)nc(C)c4)c(CC(F)F)c3c2)CC1"
assay_target = "human TLR7 (Homo sapiens (Human))"
endpoint_name = "pIC50"
reported_measurement = 7.76

[[record]]
smiles_data = "Cc1cc(-c2[nH]c3ccc(C4CCN(Cc5c[nH]c(C)n5)CC4)cc3c2C(C)C)cc(C)n1"
assay_target = "human TLR7 (Homo sapiens (Human))"
endpoint_name = "pIC50"
reported_measurement = 8.21

[[record]]
smiles_data = "Cc1cc(-c2[nH]c3ccc(C4CCN(C(=O)CO)CC4)cc3c2C(C)C)cc(C)n1"
assay_target = "human TLR7 (Homo sapiens (Human))"
endpoint_name = "pIC50"
reported_measurement = 8.47


Moving on to another compound below.
Query Cc1cc(-c2[nH]c3ccc(C4CCN(C(=O)[C@H]5C[C@H]6CC[C@@H](C5)N6)CC4)cc3c2C(C)C)ccn1 yields pIC50 of 7.17

Data provenance: patent US10660877B2
